# System: Trypanosoma cruzi
# ASSAY: Trypanosoma cruzi phosphomannomutase and mannose-1-phosphate guanylyltransferase assay
# Type: functional
# Parameters: scale not given: direction of the effect not stated beside the values
# TEST_CONDITIONS: 10 µM
# Percent Effect per entry
PROPERTY_MEASURED: Percent Effect

{"MOLECULE": "COCC(=O)N1CCC2(CC1)CCN(Cc1ccccn1)C2=O", "RESULT": "-2.24%"}
{"MOLECULE": "Cc1ccc(C(=O)N2CCC3(CC2)COC(COc2ccccn2)C3)o1 (stereo not drawn)", "RESULT": "2.24%"}
{"MOLECULE": "COCCN1CCCC12CCN(C(=O)CC1CCCC1)CC2", "RESULT": "2.44%"}
{"MOLECULE": "O=C(O)CCc1cc2n(n1)CCCN(C(=O)c1ccc3cc[nH]c3c1)C2", "RESULT": "4.05%"}
{"MOLECULE": "Cc1ccc(C(C)NC(=O)Nc2ccccc2CN2CCOCC2)o1 (stereo not drawn)", "RESULT": "-2.64%"}
{"MOLECULE": "CCOc1ccc(Cl)c(C(=O)NCc2ccc(C(=O)NC)cc2)n1", "RESULT": "4.79%"}
{"MOLECULE": "Cc1n[nH]c(=O)c2c(NC(=O)CN3CCCC(C(F)(F)F)C3)oc(C)c12 (stereo not drawn)", "RESULT": "1.41%"}
{"MOLECULE": "O=C(C1CC1)N1CCN(Cc2coc(-c3ccc(Cl)cc3)n2)CC1", "RESULT": "8.8%"}
{"MOLECULE": "CN(C)c1ncccc1CNS(=O)(=O)c1ccccc1F", "RESULT": "-3.17%"}
{"MOLECULE": "Cn1cc(C2CCCN2Cc2csc(-c3ccsc3)n2)cn1 (stereo not drawn)", "RESULT": "-7.46%"}
{"MOLECULE": "CCN(Cc1cccc2c1OCO2)C(=O)Nc1ccncc1", "RESULT": "-2.8%"}
{"MOLECULE": "OC(CN1CCC(c2ccn[nH]2)CC1)c1cccc(F)c1 (stereo not drawn)", "RESULT": "-3.49%"}
{"MOLECULE": "C1CCCN(c2nc(C3CC3)ns2)CC1", "RESULT": "-4.31%"}
{"MOLECULE": "COc1ccc2c(O)c(NC(=O)NCC3CC3)cnc2c1", "RESULT": "-1.38%"}
{"MOLECULE": "CN(Cc1ccc(F)cc1)CC1(O)CCN(C(=O)c2ccccc2)C1 (stereo not drawn)", "RESULT": "-8.1%"}
{"MOLECULE": "CCOc1ncccc1C(=O)N1CCCC1c1c(C)nn(C)c1OC (stereo not drawn)", "RESULT": "1.68%"}
{"MOLECULE": "Cc1cc(C2CCCN2Cc2ccn(C)c(=O)c2)no1 (stereo not drawn)", "RESULT": "9.11%"}
{"MOLECULE": "O=C(NCc1ccoc1)NC1CCCN(c2ncccn2)C1 (stereo not drawn)", "RESULT": "4.97%"}
{"MOLECULE": "CC(=O)c1ccccc1C(=O)NCC1(CO)CC1", "RESULT": "1.16%"}
{"MOLECULE": "O=C1c2cnc(N3CCOCC3)nc2CN1c1ccc2c(c1)OCO2", "RESULT": "2.26%"}
{"MOLECULE": "Cc1cc(CN2CCN(c3nn4cc(C)nc4s3)CC2)on1", "RESULT": "-0.923%"}
{"MOLECULE": "Cc1cnn(CCNCc2nc(Cc3ccccc3)no2)c1", "RESULT": "-1.32%"}
{"MOLECULE": "O=C(CN(Cc1cccnc1)CC1CCCO1)Nc1ccc(F)cc1 (stereo not drawn)", "RESULT": "-2.35%"}
{"MOLECULE": "COCCCN1CCCN(C(C)c2nc(C3CC3)no2)CC1 (stereo not drawn)", "RESULT": "4.74%"}
{"MOLECULE": "Cc1cc(CN(C)C(=O)NC2CCS(=O)(=O)C2)no1 (stereo not drawn)", "RESULT": "6.37%"}
{"MOLECULE": "Cc1ccc(-c2nc(CN3CCN(S(=O)(=O)N(C)C)CC3)cs2)o1", "RESULT": "-3.79%"}
{"MOLECULE": "Cc1cc(C)n(C2CCCN(C(=O)c3cc(C4CC4)on3)C2)n1 (stereo not drawn)", "RESULT": "4.41%"}
{"MOLECULE": "O=C(C1CC=CC1)N1C[C@@H]2[C@@H](C1)OCC(=O)N2Cc1cccnc1", "RESULT": "0.888%"}
{"MOLECULE": "Cc1nc(C2CCCN(C(=O)CCCn3ccnc3C)C2)no1 (stereo not drawn)", "RESULT": "-3.37%"}
{"MOLECULE": "O=C(Cc1c[nH]c2ccccc12)N1CCC(Nc2cccnn2)CC1", "RESULT": "-4.1%"}
{"MOLECULE": "O=C(NCCCN1CCc2ccccc2C1)c1cccnc1O", "RESULT": "-0.803%"}
{"MOLECULE": "N#Cc1c(F)cccc1N1CCN(S(=O)(=O)c2cccs2)CC1", "RESULT": "3.33%"}
{"MOLECULE": "Cc1nc(C2CCCN(C(=O)COCc3ccccc3Cl)C2)no1 (stereo not drawn)", "RESULT": "-1.81%"}
{"MOLECULE": "CCc1nccn1C1CCCN(C(=O)Cc2cn3ccccc3n2)C1 (stereo not drawn)", "RESULT": "3.18%"}
{"MOLECULE": "c1cc2nccc(CC3CCCN(Cc4ncc[nH]4)CC3)c2cn1 (stereo not drawn)", "RESULT": "5.34%"}
{"MOLECULE": "Cc1nn(C)cc1-c1cc(C(F)(F)F)c2c(C)nn(CC(=O)O)c2n1", "RESULT": "-2.56%"}
{"MOLECULE": "CCCn1ccc2ccc(NC(=O)N(C)CCOC)cc21", "RESULT": "-4.58%"}
{"MOLECULE": "Cc1nc(-c2ccc(C(=O)O)cc2)cc(C2CCN(C(C)C)C2)n1 (stereo not drawn)", "RESULT": "-1.18%"}
{"MOLECULE": "O=C(NCc1cc[nH]n1)NCC(c1ccco1)N1CCCC1 (stereo not drawn)", "RESULT": "1.66%"}
{"MOLECULE": "NC(=O)c1cc(NC(=O)NCCc2cc(F)cc(F)c2)ccc1F", "RESULT": "0.56%"}
{"MOLECULE": "COCCN1CCC(CN(CC2CCCO2)C(=O)CCNC(C)=O)CC1 (stereo not drawn)", "RESULT": "-1.26%"}
{"MOLECULE": "O=S(=O)(c1cccs1)N1CCCn2cnc(CN3CCCC3)c2C1", "RESULT": "-3.48%"}
{"MOLECULE": "c1cnc(NCc2ncn3c2CN(Cc2cccnc2)CCC3)nc1", "RESULT": "-2.15%"}
